biological target: Amine oxidase [flavin-containing] A (Homo sapiens, UniProt P21397); assay: Inhibition of human MAO-A using p-tyramine as substrate at 10 uM incubated for 15 mins by Amplex red and horseradish peroxidase based fluorescence assay; conditions: 0.25 h
Sequence (P21397 whole entry): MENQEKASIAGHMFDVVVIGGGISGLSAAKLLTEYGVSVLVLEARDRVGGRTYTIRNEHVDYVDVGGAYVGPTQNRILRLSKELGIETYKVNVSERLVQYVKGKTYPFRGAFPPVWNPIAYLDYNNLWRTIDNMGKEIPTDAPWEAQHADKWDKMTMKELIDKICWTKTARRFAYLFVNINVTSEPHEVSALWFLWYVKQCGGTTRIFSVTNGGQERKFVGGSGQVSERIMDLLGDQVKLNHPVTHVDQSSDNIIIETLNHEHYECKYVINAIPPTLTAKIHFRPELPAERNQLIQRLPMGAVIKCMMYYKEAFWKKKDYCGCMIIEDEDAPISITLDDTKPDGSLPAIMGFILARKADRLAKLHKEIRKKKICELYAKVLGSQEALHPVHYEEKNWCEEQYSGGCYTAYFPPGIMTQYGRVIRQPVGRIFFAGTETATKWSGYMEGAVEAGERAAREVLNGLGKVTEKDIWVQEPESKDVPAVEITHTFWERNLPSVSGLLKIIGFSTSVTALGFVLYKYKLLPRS
metric_name: inhibition (INH)

Example entries begin here.
[
  {
    "compound_smiles": "COc1ccc2occ(C(=O)Nc3cccc(Cl)c3)c(=O)c2c1",
    "inhibition (INH)": "Not Active"
  },
  {
    "compound_smiles": "O=C(Nc1ccc(O)cc1)c1coc2ccc(O)cc2c1=O",
    "inhibition (INH)": "Not Active"
  },
  {
    "compound_smiles": "COc1ccc2occ(C(=O)Nc3ccccc3)c(=O)c2c1",
    "inhibition (INH)": "Not Active"
  },
  {
    "compound_smiles": "COc1ccc2occ(C(=O)Nc3ccc(O)cc3)c(=O)c2c1",
    "inhibition (INH)": "Not Active"
  },
  {
    "compound_smiles": "Cc1ccc(NC(=O)c2coc3cccc(O)c3c2=O)cc1C",
    "inhibition (INH)": "Not Active"
  }
]

Hi team, please reply with inhibition (INH) for each item in this list.
1. COc1ccc2oc(C(=O)Nc3ccc(C)c(C)c3)cc(=O)c2c1
2. O=C(Nc1ccc(Cl)cc1)c1coc2cccc(O)c2c1=O
3. COc1ccc2oc(C(=O)Nc3ccc(O)cc3)cc(=O)c2c1

Data returned:
["Not Active", "Not Active", "Not Active"]
